So I've got a bunch of binders here, and I need their koff values.
Target: T1, recombinant human CTLA4-his protein (Acro biosystems, Cat#CT4-H5229) (human, UniProt P16410 37-162)
T1 construct: bought recombinant protein; not shown: his tag
T1 sequence (looked up): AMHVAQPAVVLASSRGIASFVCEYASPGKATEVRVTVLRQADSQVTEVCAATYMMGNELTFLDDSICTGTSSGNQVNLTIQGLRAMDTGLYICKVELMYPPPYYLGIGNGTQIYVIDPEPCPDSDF
Test: SPR, Biacore; antibody captured on anti-human IgG CM5 chip, CTLA4-his as analyte
Numbers only, in s⁻¹.

Quick batch: koff for everything below.
1. chimeric C1D1 anti-CTLA4 antibody (antibody, human IgG4 S228P, kappa, V domains shown, mouse variable domains on human IgG4/kappa, made in 293F cells) VH: EVKLDETGGGLVQPGRPLKLSCVASGFTFSDNWMNWVRQSPEKGLEWVAQIRNKPYNYETYYSDSVKGRFTISRDDSKSSVYLQMNNLRVEDMGIYYCTGGMDYWGQGTSVTVSS VL: DIQMTQSPASLSASVGETVTITCGASEIIYGALNWYQQKQGKSPQLLIYGATNLADGMSSRFSGSGSGRQYSLKISSLHPDDAATYYCQKILSPPPWTFGGGTKLEIKR
2. huC1D1-V8 (antibody, human IgG4 S228P, kappa, V domains shown, humanized IgG4/kappa; cell supernatant on Octet, purified antibody in Biacore, ELISA, FACS and the functional assay; also called hu CTLA4 C1D1-V8) VH: EVQLVESGGGLVQPGRSLRLSCTASGFTFSDNWMNWVRQAPGKGLEWVGQIRNKPYNYETYYSDSVKGRFTISRDDSKSIAYLQMNSLKTEDTAVYYCTGGMDYWGQGTTVTVSS VL: DIQMTQSPSSLSASVGDRVTITCGASEIIYGALNWYQQKPGKSPKLLIYGATNLADGVPSRFSGSGSGTDFTLTISSLQPEDVATYYCQKILSPPPWTFGGGTKVEIKR
3. chimeric D1D5 anti-CTLA4 antibody (antibody, human IgG4 S228P, kappa, V domains shown, mouse variable domains on human IgG4/kappa, made in 293F cells) VH: EVKLVESGGGLVKPGGSLKLSCAASGFTFSDYGMAWVRQAPGKGPEWVAFISNLAYSVYYADTETGRFTISREDAKNTLYLEMSSLRSEDTAMYYCARSGLPYAMDYWGQGTSVTVSS VL: DIQMTQTTSSLSASLGDRVTISCRASQDISNYLNWYQQKPDGTVKLLIYYISRLHSGVPSRFSGSGSGTDFSLTISNLEQEDIATYFCQQGRMLPWTFGGGTRLEIKR
4. huD1D5-V9 (antibody, human IgG4 S228P, kappa, V domains shown, humanized IgG4/kappa; cell supernatant on Octet, purified antibody in Biacore, ELISA, FACS and the functional assay; also called hu CTLA4 D1D5-V9; huDID5-V9) VH: EVQLVESGGGLVKPGGSLRLSCAASGFTFSDYGMAWVRQAPGKGPEWVAFISNLAYSVYYADTETGRFTISRDDAKNSLYLQMNSLRAEDTAVYYCARSGLPYAMDYWGQGTTVTVSS VL: DIQMTQSPSSLSASVGDRVTITCRASQDISNYLNWYQQKPGKVPKLLIYYISRLHSGVPSRFSGSGSGTDFTLTISSLQPEDVATYYCQQGRMLPWTFGGGTKVEIKR

*A*
1: 0.000422; 2: 0.00086; 3: 0.000404; 4: 0.000519
